Assay target: DHPS enzyme (dihydropteroate synthase) (Bacillus anthracis)
Experimental details: biochemical
Condition details: 100 μg/mL; read-out: Inhibition % against DHPS enzyme
Classification field: enter true for inhibition at 100 µg/mL values not below 60%, false for values below it.

Query block: Is it the case that Cc1ccc(S(=O)(=O)NNC(=O)/C(=C/c2ccc(Cl)cc2)c2nc3ccccc3s2)cc1 [Compound 14b] has inhibition at 100 µg/mL reaching or exceeding 60%?
Result block: true

Query block: Next record, please: O=c1[nH][nH]c(-c2ccc(Cl)cc2)c1-c1nc2ccccc2s1 [Compound 16b]
Result block: true

Query block: Item: O=c1[nH]c(-c2ccc(Cl)cc2)ccc1-c1nc2ccccc2s1 [Compound 12a]
Result block: false

Query block: Now the same for Cc1ccc(-c2[nH][nH]c(=O)c2-c2nc3ccccc3s2)cc1 [Compound 16c]
Result block: true

With those in mind, consider the next compound.
Query block: Has O=c1[nH][nH]c(-c2ccc(F)cc2)c1-c1nc2ccccc2s1 [Compound 16a] a recorded inhibition at 100 µg/mL greater than or equal to 60%?
Result block: true

----------
Observation type: melting point

Query block: Item under review: Cc1ccc(S(=O)(=O)NNC(=O)/C(=C/c2ccc(Cl)cc2)c2nc3ccccc3s2)cc1 [Compound 14b] . Reported melting point?
Result block: 188 to 189 °C

Answer for every listed entry: what is its melting point? The entries follow.
1. O=C(NNS(=O)(=O)c1ccccc1)/C(=N/Nc1ccccc1)c1nc2ccccc2s1 [Compound 19a]
2. Cc1ccc(NN=C(C(=O)NNS(=O)(=O)c2ccccc2)c2nc3ccccc3s2)cc1 [Compound 19c]
3. Cc1ccc(N/N=C(/C(=O)NNS(=O)(=O)c2ccc(C)cc2)c2nc3ccccc3s2)cc1 [Compound 19e]
4. O=C(NNS(=O)(=O)c1ccccc1)C(=NNc1ccc(Cl)cc1)c1nc2ccccc2s1 [Compound 19b]
5. Cc1ccc(NC(=O)c2cc(-c3nc4ccccc4s3)c(=O)n(NS(=O)(=O)c3ccc(Cl)cc3)c2N)cc1
6. O=c1[nH][nH]c(-c2ccc(F)cc2)c1-c1nc2ccccc2s1 [Compound 16a]

Result block:
246 to 248.6 °C
262 to 263 °C
285 to 286 °C
265 to 267 °C
302 to 305 °C
238 to 240 °C

Query block: Item `Nc1c(C(=O)Nc2ccc(Cl)cc2)cc(-c2nc3ccccc3s2)c(=O)n1NS(=O)(=O)c1ccc(Cl)cc1` has what recorded melting point?
Result block: 334 to 336 °C

----------
Tested on: P. aeruginosa
Experimental details: MIC, twofold serial dilution, P. aeruginosa
Assay type: cell-based
Condition details: Pseudomonas aeruginosa; twofold serial dilution in broth, 37 °C 16–20 h; read-out: The Minimum Inhibitory Concentration (MIC), P. aeruginosa
Observation type: MIC (µM)
Numbers only, in µM.

Query block: Look at this molecule and give its reported MIC. Cc1ccc(S(=O)(=O)NNC(=O)/C(=N/Nc2ccc(Cl)cc2)c2nc3ccccc3s2)cc1 [Compound 19d]
Result block: 500

Query block: Can you check Nc1ccc(S(=O)(=O)Nc2ncccn2)cc1 [Sulfadiazine, reference compound] next?
Result block: 999

Query block: Now give it for Cc1ccc(NN=C(C(=O)NNS(=O)(=O)c2ccccc2)c2nc3ccccc3s2)cc1 [Compound 19c] too.
Result block: 2150

Query block: Follow-up entry: O=c1[nH][nH]c(-c2ccc(Cl)cc2)c1-c1nc2ccccc2s1 [Compound 16b]
Result block: 762

Query block: Also need Cc1ccc(S(=O)(=O)NNC(=O)/C(=C/c2ccc(Cl)cc2)c2nc3ccccc3s2)cc1 [Compound 14b] , thanks.
Result block: 517

Then there is this molecule:
Query block: So what's the measured MIC for this one? O=c1[nH][nH]c(-c2ccc(F)cc2)c1-c1nc2ccccc2s1 [Compound 16a]
Result block: 1610

----------
Assay target: DHPS enzyme (dihydropteroate synthase) (Bacillus anthracis, UniProt Q81VW8)
Sequence (Q81VW8 1-280): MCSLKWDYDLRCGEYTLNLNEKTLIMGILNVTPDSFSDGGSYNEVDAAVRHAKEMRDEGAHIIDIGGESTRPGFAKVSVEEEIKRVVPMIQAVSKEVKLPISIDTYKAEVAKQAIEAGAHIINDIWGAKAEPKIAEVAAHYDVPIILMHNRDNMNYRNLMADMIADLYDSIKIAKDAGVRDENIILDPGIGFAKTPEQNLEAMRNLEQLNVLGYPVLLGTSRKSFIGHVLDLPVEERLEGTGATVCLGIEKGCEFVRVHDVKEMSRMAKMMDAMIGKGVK
Experimental details: biochemical
Condition details: 0.1 μg/mL; read-out: Inhibition % against DHPS enzyme
Observation type: inhibition at 0.1 µg/mL (%)
Numbers only, in %.

Below are worked cases with known answers.
Query block: What value of inhibition at 0.1 µg/mL has been reported for the following molecule? Cc1ccc(-c2[nH][nH]c(=O)c2-c2nc3ccccc3s2)cc1 [Compound 16c]
Result block: 13

Query block: Cool, now O=c1[nH]c(-c2ccc(Cl)cc2)ccc1-c1nc2ccccc2s1 [Compound 12a]
Result block: 11

Query block: Now give it for O=c1[nH][nH]c(-c2ccc(F)cc2)c1-c1nc2ccccc2s1 [Compound 16a] too.
Result block: 12

---
Query block: Can you share its inhibition at 0.1 µg/mL? I mean this molecule: Cc1ccc(/C=C(/C(=O)NNS(=O)(=O)c2ccc(C)cc2)c2nc3ccccc3s2)cc1 [Compound 14c]
Result block: 8.6
